Kindly state abundance fitness for each of the entries shown.
B1: Steroid hormone receptor ERR2, residues 100 to 176; numbered along this chain, O95718 (parent)
chain: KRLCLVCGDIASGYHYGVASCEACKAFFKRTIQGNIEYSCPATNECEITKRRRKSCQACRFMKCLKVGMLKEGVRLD

variants of: B1; assay: abundance fitness (aPCA) (normalised: wild type 0, dead -1); higher = more abundant; growth selection in yeast, the domain comes from the species named; conditions: Homo sapiens
Answers are plain numbers.

Reference set, count: 5
Y14Q    -0.145
K50T    0.019
C64P    -0.747
S55I    0.344
Q57F    -0.243

Need abundance fitness for each of these variants.
1. C7Q
2. V6M
3. N44C
4. K29G
5. A23F

Ans.
1: -0.918; 2: -1.01; 3: -0.473; 4: 0.096; 5: -0.538

Qu. Provide one value: measured abundance fitness of I36A
Ans. -0.032

This collection of values is drawn from the Human Domainome abundance scans (Beltran et al. 2025).
